Where these numbers come from: the supplement of paper PMC6555819

Test system: FXR:RXRa (NR concentration 270 nM, RXRa partner concentration 90 nM)
experiment.summary: PBM binding z-score (relative to random genomic background probes); higher = stronger binding; sequences stand for … in GC…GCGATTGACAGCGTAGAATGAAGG
Recorded PBM binding z-score values for a group of sequences are listed next.
Lab note: record the figure alone, no unit after it.

Worked cases, answers included:
residue_string=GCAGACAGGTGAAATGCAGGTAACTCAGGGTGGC val=-0.157
residue_string=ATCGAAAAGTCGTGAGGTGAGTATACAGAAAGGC val=0.379
residue_string=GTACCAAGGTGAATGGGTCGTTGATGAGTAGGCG val=0.456
residue_string=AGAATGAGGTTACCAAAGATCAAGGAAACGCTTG val=2.13
residue_string=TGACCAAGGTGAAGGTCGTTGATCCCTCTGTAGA val=2.13

Ask: Report PBM binding z-score for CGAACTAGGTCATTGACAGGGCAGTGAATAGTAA please.
Result: 4.4

---

System: PPARg homodimer (NR concentration 180 nM)
experiment.summary: PBM binding z-score (relative to random genomic background probes); higher = stronger binding; sequences stand for … in GC…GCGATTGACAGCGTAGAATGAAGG
readout.kind: PBM binding z-score
Number only, no unit.

residue_string=CCTTACGGGTCACGAGGTAATAGCACGACGAGCG val=4.14
residue_string=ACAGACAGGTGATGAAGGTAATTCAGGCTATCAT val=0.3
residue_string=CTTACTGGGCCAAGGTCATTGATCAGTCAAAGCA val=2.67

Ask: Which measured PBM binding z-score value corresponds to CTCGACAGGTCGGTTGAGGTGAGTATACGGATAA ?
Result: -0.0437

Ask: Quick one: PBM binding z-score of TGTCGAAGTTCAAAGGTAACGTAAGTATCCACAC ?
Result: 1.53

Ask: Would you kindly share the measured PBM binding z-score for AATACAGGGTCACTAAGCCAGAGTAGGTACGAAT ?
Result: 2.06

Ask: Please look up its PBM binding z-score: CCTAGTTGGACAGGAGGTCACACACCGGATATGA
Result: 3.06

Ask: Which PBM binding z-score is reported for this sequence? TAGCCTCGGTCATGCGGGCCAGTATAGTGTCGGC
Result: -0.406

Ask: Query: PBM binding z-score; subject: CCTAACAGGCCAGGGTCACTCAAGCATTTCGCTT
Result: 1.4

---

System: RXRa DBDmut IVT, anti-RXR (DBD mutation: RXRa K156A/R161A, NR concentration 90 nM)
experiment.summary: PBM binding z-score (relative to random genomic background probes); higher = stronger binding; sequences stand for … in GC…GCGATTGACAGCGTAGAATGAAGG
Recorded PBM binding z-score, one value per entry.

Check out these entries, answers already filled in.
residue_string=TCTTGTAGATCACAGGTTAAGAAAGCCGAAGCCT readout_kind="PBM binding z-score" val=0.557
residue_string=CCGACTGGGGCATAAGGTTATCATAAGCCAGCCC readout_kind="PBM binding z-score" val=-0.174
residue_string=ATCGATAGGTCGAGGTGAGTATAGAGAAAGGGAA readout_kind="PBM binding z-score" val=-0.314
residue_string=ATCTCTATGTAAAAGTTCAGTGAATCCCGAGGAT readout_kind="PBM binding z-score" val=1.05

Ask: Returns the measured PBM binding z-score for the input sequence. Input: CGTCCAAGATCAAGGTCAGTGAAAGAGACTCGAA
Result: 1.15

Ask: Recorded PBM binding z-score of GCTAGCAGGCCATTTGGGTCACTCATTGACGGGC , please.
Result: 0.292

---

System: THRa:RXRa (NR concentration 90 nM, RXRa partner concentration 90 nM)
experiment.summary: PBM binding z-score (relative to random genomic background probes); higher = stronger binding; sequences stand for … in GC…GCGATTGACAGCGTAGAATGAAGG
Definition: the class of an entry is the range in low interval: < 2; middle interval: ≥ 2 and < 3; high interval: ≥ 3 that contains its PBM binding z-score.

Ask: Which class holds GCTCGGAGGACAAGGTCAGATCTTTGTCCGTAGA ?
Result: high interval

Ask: Which PBM binding z-score category applies to CCTACTGGGTCATCAGGTCATTGATATCAACGTT here?
Result: high interval

Ask: Which bin, given its PBM binding z-score, does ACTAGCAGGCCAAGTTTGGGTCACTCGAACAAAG occupy?
Result: middle interval

Ask: Lab note: which band did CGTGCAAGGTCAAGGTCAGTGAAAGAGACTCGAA land in?
Result: high interval

Ask: Record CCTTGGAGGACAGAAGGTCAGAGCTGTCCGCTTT — which class?
Result: middle interval

Ask: Please report the category associated with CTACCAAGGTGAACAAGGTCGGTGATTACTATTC , nothing else.
Result: middle interval

Ask: Hi there! Could you help me figure out the category for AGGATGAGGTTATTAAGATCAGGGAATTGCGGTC please?
Result: middle interval

Ask: Band of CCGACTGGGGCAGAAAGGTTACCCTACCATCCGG ?
Result: low interval

Ask: Categorize the following entry: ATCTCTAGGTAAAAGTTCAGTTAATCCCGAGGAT
Result: low interval

Ask: Which category does the recorded PBM binding z-score put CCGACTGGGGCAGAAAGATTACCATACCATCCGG in?
Result: low interval

Ask: For the record ACTAGCAGGCCAAGCGTCACTCAAGATTAGTCCG , report the class its PBM binding z-score corresponds to.
Result: low interval

Ask: Classify this sequence: CCTTACGGGTCACTGAGAGGTTATAGCATTTGGA
Result: high interval

Ask: Consider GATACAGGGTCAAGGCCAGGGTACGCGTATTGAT . To which PBM binding z-score class does it belong?
Result: high interval

Ask: State the class of the sequence shown: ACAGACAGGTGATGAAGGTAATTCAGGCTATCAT
Result: low interval

Ask: // return the class label for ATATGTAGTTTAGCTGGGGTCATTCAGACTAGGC
Result: high interval

Ask: Hi, small favor: classify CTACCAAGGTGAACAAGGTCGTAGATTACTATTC by its PBM binding z-score when you get a moment.
Result: high interval

Ask: Could you place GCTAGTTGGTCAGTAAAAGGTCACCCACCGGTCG in its proper category? Many thanks.
Result: high interval

Ask: Record AGAATGAGGTTAAGATCAGGGAGACAGAATACAT — which class?
Result: middle interval

---

Recorded PBM binding z-score, one value per entry.
Test system: FXR:RXRa (NR concentration 270 nM, RXRa partner concentration 90 nM)
experiment.summary: PBM binding z-score (relative to random genomic background probes); higher = stronger binding; sequences stand for … in GC…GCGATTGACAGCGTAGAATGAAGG
Lab note: write the figure by itself, no unit.

residue_string=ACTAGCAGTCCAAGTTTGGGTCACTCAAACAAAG readout_kind="PBM binding z-score" val=0.21

Ask: Which PBM binding z-score value is on record for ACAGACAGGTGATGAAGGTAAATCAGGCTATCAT ?
Result: -0.0911

Ask: Param item = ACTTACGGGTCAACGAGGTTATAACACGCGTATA ; retrieve measured PBM binding z-score.
Result: 7.16

Ask: I'd like to know its PBM binding z-score. The sequence in question is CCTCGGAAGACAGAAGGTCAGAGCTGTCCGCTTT
Result: 0.995

---

Test system: RXRa DBDmut IVT, anti-RXR (DBD mutation: RXRa K156A/R161A, NR concentration 90 nM)
experiment.summary: PBM binding z-score (relative to random genomic background probes); higher = stronger binding; sequences stand for … in GC…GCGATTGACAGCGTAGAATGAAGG
readout.kind: PBM binding z-score
Keep the answer to the number alone.

Below are worked cases with known answers.
residue_string=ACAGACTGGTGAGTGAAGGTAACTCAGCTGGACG val=-0.514
residue_string=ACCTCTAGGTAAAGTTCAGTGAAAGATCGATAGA val=1.47
residue_string=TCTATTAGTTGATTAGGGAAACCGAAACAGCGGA val=1.18

Ask: // PBM binding z-score lookup, key: ACAGACAGGTGATGAAGGTAACTCACGCTATCAT
Result: -0.0205

Ask: PBM binding z-score for TAGCCTAGGTCATTCAGGGGCCAGTACAGAAAGC ?
Result: 1.94

Ask: Record request: PBM binding z-score value, item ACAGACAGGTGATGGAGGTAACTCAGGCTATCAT
Result: -0.505

Ask: Bench note: what PBM binding z-score did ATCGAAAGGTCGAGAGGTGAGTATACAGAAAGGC show?
Result: 0.518

Ask: Entry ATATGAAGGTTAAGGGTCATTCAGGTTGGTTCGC : reported PBM binding z-score = ?
Result: 2.14

Ask: Return reported PBM binding z-score; argument: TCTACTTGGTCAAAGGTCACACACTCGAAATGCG
Result: 2.19

Ask: Requested read-out: PBM binding z-score. Entry: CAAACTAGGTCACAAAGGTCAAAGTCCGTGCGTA
Result: 3.46

Ask: Suppose we examine the sequence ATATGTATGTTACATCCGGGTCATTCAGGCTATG ; what PBM binding z-score value has been reported?
Result: 0.811

Ask: Recorded PBM binding z-score of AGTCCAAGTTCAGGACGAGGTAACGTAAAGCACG , please.
Result: 3.51

Ask: Consider the sequence CCTATTTGGTCAGGAGGTCACACACCGGATATGA and give its measured PBM binding z-score.
Result: 1.25
